Test system: Mycobacterium kansasii
PROTOCOL_DESCRIPTION: Antimycobacterial activity against Mycobacterium kansasii CNCTC My 235/80 after 14 days by micromethod
Type: functional
EXPERIMENTAL_CONTEXT: CNCTC My 235/80, 336 h
# if measured MIC99 < 2 µM: condition met  # else: condition not met

Example entries and their recorded answers appear below.
[
  {
    "COMPOUND_STRUCTURE": "O=[N+]([O-])c1cc(-c2nnn(CSc3nnnn3-c3ccc(Cl)c(Cl)c3)n2)cc([N+](=O)[O-])c1",
    "ASSIGNED_CLASS": "condition met"
  },
  {
    "COMPOUND_STRUCTURE": "O=[N+]([O-])c1cc(Sc2nnnn2Cc2ccccc2)cc([N+](=O)[O-])c1",
    "ASSIGNED_CLASS": "condition not met"
  },
  {
    "COMPOUND_STRUCTURE": "O=[N+]([O-])c1cc(-c2nnn(CCCCSc3nnnn3-c3ccc(Br)cc3)n2)cc([N+](=O)[O-])c1",
    "ASSIGNED_CLASS": "condition met"
  },
  {
    "COMPOUND_STRUCTURE": "O=[N+]([O-])c1cc(-c2nnn(CSc3nnnn3-c3ccc(Cl)cc3)n2)cc([N+](=O)[O-])c1",
    "ASSIGNED_CLASS": "condition met"
  },
  {
    "COMPOUND_STRUCTURE": "COc1ccc(Cn2nnc(-c3cc([N+](=O)[O-])cc([N+](=O)[O-])c3)n2)cc1",
    "ASSIGNED_CLASS": "condition met"
  },
  {
    "COMPOUND_STRUCTURE": "O=[N+]([O-])c1cc(-c2nnn(Cc3ccccc3F)n2)cc([N+](=O)[O-])c1",
    "ASSIGNED_CLASS": "condition met"
  }
]

q: Does the reported MIC99 of COc1ccccc1-n1nnnc1Sc1cc([N+](=O)[O-])cc([N+](=O)[O-])c1 stay below 2 µM?
a: condition not met

q: # TODO verify MIC99 < 2 µM strictly for this compound: O=[N+]([O-])c1cc(Sc2nnnn2C2CCCCC2)cc([N+](=O)[O-])c1
a: condition met

q: Please determine if COc1ccc(-n2nnnc2Sc2cc([N+](=O)[O-])cc([N+](=O)[O-])c2)cc1 is below 2 µM in terms of MIC99.
a: condition not met

q: MIC99 under 2 µM? Item: O=[N+]([O-])c1cc(-c2nnn(Cc3ccc(Cl)cc3)n2)cc([N+](=O)[O-])c1
a: condition met

q: Does the reported MIC99 of CCCCCCCCCCCCCCCCn1nnnc1SCn1nnc(-c2cc([N+](=O)[O-])cc([N+](=O)[O-])c2)n1 stay below 2 µM?
a: condition not met

q: # strict comparison: is reported MIC99 < 2 µM? input = COc1ccc(-n2nnnc2SCn2nnc(-c3cc([N+](=O)[O-])cc([N+](=O)[O-])c3)n2)cc1
a: condition met

q: Criterion: MIC99 strictly below 2 µM. Is it met by O=[N+]([O-])c1cc(-c2nnnn2Cc2ccccc2)cc([N+](=O)[O-])c1 ?
a: condition not met

q: Below 2 µM on MIC99? Entry O=[N+]([O-])c1cc(Sc2nnnn2-c2ccccc2)cc([N+](=O)[O-])c1
a: condition not met

q: I wonder whether O=[N+]([O-])c1cc(-c2nnn(Cc3ccc(Cl)c(Cl)c3)n2)cc([N+](=O)[O-])c1 has MIC99 below 2 µM. Can you tell?
a: condition met

q: Given CCCn1nnc(-c2cc([N+](=O)[O-])cc([N+](=O)[O-])c2)n1 , is recorded MIC99 strictly lower than 2 µM?
a: condition not met

====

Catalogue of MIC values
System: Trichophyton mentagrophytes
PROTOCOL_DESCRIPTION: Antifungal activity against Trichophyton mentagrophytes 445 after 72 hrs by broth microdilution method
Format: functional
EXPERIMENTAL_CONTEXT: Trichophyton mentagrophytes, 445, 72 h

[
  {
    "COMPOUND_STRUCTURE": "Cc1ccc(Cn2nnc(-c3cc([N+](=O)[O-])cc([N+](=O)[O-])c3)n2)cc1",
    "VALUE_OBSERVED": "> 500 µM"
  },
  {
    "COMPOUND_STRUCTURE": "C[C@@H]1[C@H](O)[C@@H](C)/C=C/C=C/C=C/C=C/C=C/C=C/C=C/[C@H](O[C@@H]2O[C@H](C)[C@@H](O)[C@H](N)[C@@H]2O)C[C@@H]2O[C@](O)(C[C@@H](O)C[C@@H](O)[C@H](O)CC[C@@H](O)C[C@@H](O)CC(=O)O[C@H]1C)C[C@H](O)[C@H]2C(=O)O",
    "VALUE_OBSERVED": "0.54 µM"
  }
]

Kindly review the next compound as well.
q: Query for Trichophyton mentagrophytes: what MIC does the record show for O=[N+]([O-])c1cc(-c2nnn(CSc3nnnn3-c3ccc(Cl)c(Cl)c3)n2)cc([N+](=O)[O-])c1 ?
a: > 125 µM

====

System: Mycobacterium kansasii
PROTOCOL_DESCRIPTION: Antimycobacterial activity against Mycobacterium kansasii CNCTC My 235/80 after 7 days by micromethod
Format: functional
EXPERIMENTAL_CONTEXT: CNCTC My 235/80, 168 h
Measured MIC99 values are reported for all entries that follow.
Output spec: scalar in µM, unitless text.

[
  {
    "COMPOUND_STRUCTURE": "O=[N+]([O-])c1cc(-c2nnn(CCCCSc3nnnn3-c3ccc(Cl)c(Cl)c3)n2)cc([N+](=O)[O-])c1",
    "VALUE_OBSERVED": 0.5
  },
  {
    "COMPOUND_STRUCTURE": "O=[N+]([O-])c1cc(-c2nnn(CCSc3nnnn3-c3ccc(Cl)c(Cl)c3)n2)cc([N+](=O)[O-])c1",
    "VALUE_OBSERVED": 0.25
  },
  {
    "COMPOUND_STRUCTURE": "O=[N+]([O-])c1cc(Sc2nnnn2Cc2ccccc2)cc([N+](=O)[O-])c1",
    "VALUE_OBSERVED": 8
  },
  {
    "COMPOUND_STRUCTURE": "COc1ccc(-n2nnnc2Sc2cc([N+](=O)[O-])cc([N+](=O)[O-])c2)cc1",
    "VALUE_OBSERVED": 2
  },
  {
    "COMPOUND_STRUCTURE": "Cn1nnc(-c2cc([N+](=O)[O-])cc([N+](=O)[O-])c2)n1",
    "VALUE_OBSERVED": 62.5
  },
  {
    "COMPOUND_STRUCTURE": "O=[N+]([O-])c1cc(-c2nnn(Cc3ccc(Br)cc3)n2)cc([N+](=O)[O-])c1",
    "VALUE_OBSERVED": 0.25
  }
]

q: Field request: MIC99 | item: COc1ccccc1-n1nnnc1Sc1cc([N+](=O)[O-])cc([N+](=O)[O-])c1
a: 16

q: Which MIC99 is reported for this compound? O=[N+]([O-])c1cc(-c2nnn(Cc3ccc(Cl)cc3)n2)cc([N+](=O)[O-])c1
a: 0.25

q: # get_value(readout='MIC99', item= Cn1nnnc1SCn1nnc(-c2cc([N+](=O)[O-])cc([N+](=O)[O-])c2)n1 )
a: 16

====

The entries below come with measured MIC99 values attached.
System: Mycobacterium avium
PROTOCOL_DESCRIPTION: Antimycobacterial activity against Mycobacterium avium CNCTC My 330/80 after 14 days by micromethod
Format: functional
EXPERIMENTAL_CONTEXT: CNCTC My 330/80, 336 h
Kindly provide the numeric value in µM only, without the unit symbol.

[
  {
    "COMPOUND_STRUCTURE": "O=[N+]([O-])c1cc(-c2nnn(CCCSc3nnnn3-c3ccc(Cl)c(Cl)c3)n2)cc([N+](=O)[O-])c1",
    "SYSTEM_UNDER_TEST": "Mycobacterium avium",
    "MIC99 [µM]": 4
  },
  {
    "COMPOUND_STRUCTURE": "CO[C@H]1/C=C/O[C@@]2(C)Oc3c(C)c(O)c4c(O)c(c(/C=N/N5CCN(C)CC5)c(O)c4c3C2=O)NC(=O)/C(C)=C\\C=C\\[C@H](C)[C@H](O)[C@@H](C)[C@@H](O)[C@@H](C)[C@H](OC(C)=O)[C@@H]1C",
    "SYSTEM_UNDER_TEST": "Mycobacterium avium",
    "MIC99 [µM]": 32
  },
  {
    "COMPOUND_STRUCTURE": "CCCn1nnc(-c2cc([N+](=O)[O-])cc([N+](=O)[O-])c2)n1",
    "SYSTEM_UNDER_TEST": "Mycobacterium avium",
    "MIC99 [µM]": 32
  }
]

Now consider a different compound.
q: Report MIC99 for O=[N+]([O-])c1cc(-c2nnn(CCCCSc3nnnn3-c3ccc(Cl)c(Cl)c3)n2)cc([N+](=O)[O-])c1 please.
a: 2
